Just for reference, patent US5162218A is where these values come from.

Biological target: MOPC315 IgA Fab fragment (Mus musculus, UniProt P01729+P01822+P01844+P01878)
Construct: Fab fragment, generated by treating the reduced and alkylated IgA with papain; made in house
Sequence (P01822+P01878 fused): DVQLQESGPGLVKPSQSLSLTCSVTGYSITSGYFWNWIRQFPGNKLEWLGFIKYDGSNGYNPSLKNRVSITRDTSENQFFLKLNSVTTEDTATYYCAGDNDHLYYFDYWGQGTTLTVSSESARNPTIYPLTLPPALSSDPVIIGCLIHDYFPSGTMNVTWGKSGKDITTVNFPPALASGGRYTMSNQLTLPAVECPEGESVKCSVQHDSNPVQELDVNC
Sequence (P01729+P01844 fused): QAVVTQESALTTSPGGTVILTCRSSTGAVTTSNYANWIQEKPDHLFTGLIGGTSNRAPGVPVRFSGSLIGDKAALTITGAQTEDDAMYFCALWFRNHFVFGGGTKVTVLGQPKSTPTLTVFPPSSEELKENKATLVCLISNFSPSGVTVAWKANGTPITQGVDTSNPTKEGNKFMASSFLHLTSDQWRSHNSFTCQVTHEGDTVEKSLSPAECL
Test: Affinity labeling of Fab (incorporation of cleavable affinity labels)
Assay type: binding
Conditions: Fab 10 μM; 1.5 equivalents aldehyde plus NaCNBH3, pH 7.0, 37° C., 20 hours, or 1.3 equivalents α-bromoketone, pH 9.0, 37° C., 16 hours
Catalogue of compounds with associated % Fab labeled (without DNP-glycine)
Reply numerically in %, unit not repeated.

Consider the compound O=C(CBr)CCSc1ccc([N+](=O)[O-])cc1[N+](=O)[O-] [compound 3, 1-Bromo-2-oxo-4-(S-DNP)-mercaptobutane] and give its measured % Fab labeled (without DNP-glycine).
0

New cases:
Returns the measured % Fab labeled (without DNP-glycine) for the input compound. Input: O=CCCCSSCCNc1ccc([N+](=O)[O-])cc1[N+](=O)[O-]
95

Recorded % Fab labeled (without DNP-glycine) of O=C(CBr)CCCSc1ccc([N+](=O)[O-])cc1[N+](=O)[O-] [compound 4, 1-Bromo-2-oxo-5-(S-DNP)-mercaptopentane] , please.
85

Reported % Fab labeled (without DNP-glycine), compound O=C(CBr)CCCCSc1ccc([N+](=O)[O-])cc1[N+](=O)[O-] [compound 5, 1-Bromo-2=oxo-6-(S-DNP)-mercaptohexane] : ____
15

Which % Fab labeled (without DNP-glycine) is listed for O=CCCSSCCNc1ccc([N+](=O)[O-])cc1[N+](=O)[O-] ?
22

----------
Consider the following molecules and their measured % Fab labeled (with DNP-glycine) readings.
Target: MOPC315 IgA Fab fragment (Mus musculus, UniProt P01729+P01822+P01844+P01878)
Construct: Fab fragment, generated by treating the reduced and alkylated IgA with papain; made in house
Assay: Affinity labeling of Fab (incorporation of cleavable affinity labels)
Assay type: binding
Conditions: as without, in the presence of 10 mM competitive inhibitor DNP-glycine
Use % as the unit, but write only the number.

Completed entries (count: 4):
Item under review: O=C(CBr)CCSc1ccc([N+](=O)[O-])cc1[N+](=O)[O-] [compound 3, 1-Bromo-2-oxo-4-(S-DNP)-mercaptobutane] . Reported % Fab labeled (with DNP-glycine)?
0

Fill in: % Fab labeled (with DNP-glycine) of O=C(CBr)CCCCSc1ccc([N+](=O)[O-])cc1[N+](=O)[O-] [compound 5, 1-Bromo-2=oxo-6-(S-DNP)-mercaptohexane] is ___
0

Item under review: O=CCCSSCCNc1ccc([N+](=O)[O-])cc1[N+](=O)[O-] . Reported % Fab labeled (with DNP-glycine)?
5

Entry O=C(CBr)CCCSc1ccc([N+](=O)[O-])cc1[N+](=O)[O-] [compound 4, 1-Bromo-2-oxo-5-(S-DNP)-mercaptopentane] has what % Fab labeled (with DNP-glycine)?
0

// next entry
Entry under review: O=CCCCSSCCNc1ccc([N+](=O)[O-])cc1[N+](=O)[O-] . Reported % Fab labeled (with DNP-glycine)?
10

----------
Molecular target: MOPC315 IgA Fab fragment, thiolated Fab labeled with 2 (Fab-SH, thiol tethered at residue 52H of the heavy chain) (Mus musculus, UniProt P01729+P01822)
Construct: Fab fragment, generated by treating the reduced and alkylated IgA with papain
Sequence (P01822 19-137): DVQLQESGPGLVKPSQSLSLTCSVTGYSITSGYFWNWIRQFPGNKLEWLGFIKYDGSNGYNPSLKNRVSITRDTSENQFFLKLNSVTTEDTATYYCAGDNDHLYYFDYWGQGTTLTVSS
Sequence (P01729 20-129): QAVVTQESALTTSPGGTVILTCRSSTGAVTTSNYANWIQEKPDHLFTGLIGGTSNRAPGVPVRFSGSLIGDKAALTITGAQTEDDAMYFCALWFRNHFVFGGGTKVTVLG
Sequence (P01878 1-100 partner limits assumed): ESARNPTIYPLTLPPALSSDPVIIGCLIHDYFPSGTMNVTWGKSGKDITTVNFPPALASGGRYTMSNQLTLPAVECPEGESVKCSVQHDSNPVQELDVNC
Sequence (P01844 whole entry partner, the tested form may be a part): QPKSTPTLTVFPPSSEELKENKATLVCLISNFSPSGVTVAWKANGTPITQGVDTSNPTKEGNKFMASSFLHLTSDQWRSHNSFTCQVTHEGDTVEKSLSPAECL
Test: Ester cleavage (thiolysis) assay, fluorometric release of coumarin
Procedure: Cleavage of DNP coumarin esters 14 and 15 by the thiol-containing antibodies was assayed in the presence and absence of 0.1 μM NaCl, 50 mM sodium phosphate, pH 7.0, with 24 μM dithiothreitol at 10° C. The release of free coumarin was quantitated fluorometrically, exciting at 355 nm and measuring emission at 455 nm. […] After equilibrating, the substrate was added (30 μl of a stock solution in acetonitrile) and the solution mixed for 10 sec. before monitoring fluorescence change. […]
observation-type: pKi
Lab note: report pKi as minus log10 of the concentration in molar units, number only.

Entry O=C(O)CNc1ccc([N+](=O)[O-])cc1[N+](=O)[O-] has what pKi?
5.10
